The origin of these recorded values is ChEMBL document CHEMBL1201862.

- target: High affinity choline transporter 1 (Homo sapiens, UniProt Q9GZV3)
- Sequence (Q9GZV3 whole entry): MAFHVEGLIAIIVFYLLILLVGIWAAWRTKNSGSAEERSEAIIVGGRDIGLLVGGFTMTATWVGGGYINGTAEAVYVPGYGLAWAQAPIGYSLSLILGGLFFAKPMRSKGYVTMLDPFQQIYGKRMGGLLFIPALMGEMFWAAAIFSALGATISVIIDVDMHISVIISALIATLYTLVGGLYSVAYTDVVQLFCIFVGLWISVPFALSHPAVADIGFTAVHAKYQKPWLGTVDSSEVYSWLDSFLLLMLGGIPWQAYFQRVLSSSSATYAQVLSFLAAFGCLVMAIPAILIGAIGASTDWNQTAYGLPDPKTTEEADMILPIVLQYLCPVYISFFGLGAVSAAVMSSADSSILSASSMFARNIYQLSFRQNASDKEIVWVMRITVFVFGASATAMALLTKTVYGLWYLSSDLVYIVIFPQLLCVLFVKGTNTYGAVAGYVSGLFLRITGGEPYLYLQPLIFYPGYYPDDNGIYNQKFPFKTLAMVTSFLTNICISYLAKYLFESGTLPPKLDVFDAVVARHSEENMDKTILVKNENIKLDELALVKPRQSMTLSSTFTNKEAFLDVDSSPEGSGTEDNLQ
- test-summary: human choline transporter blockers, potency – cell-based, 5-point CRC, membrane potential dye, dose response (AID 504840)
- Assay type: functional
Active and inactive are the calls of the source.
Assign IC50 to each entry below.

Form: molecule = CN1CCN(c2oc(Cc3cccc4ccccc34)nc2C#N)CC1 ; IC50 = 1.66 µM (active)

Form: molecule = Fc1cccc(Cc2noc(CN3CCC(c4ccncc4)CC3)n2)c1 ; IC50 = 14.5 µM (active)

Form: molecule = CCOC(=O)c1cnc2c(C)cc(Cl)cc2c1N1CCN(C)CC1 ; IC50 = 11.5 µM (active)

Form: molecule = CC(C)n1c(O)c(N=NC(=O)Cc2csc(N3CCOCC3)n2)c2ccccc21 ; IC50 = 13.5 µM (active)

Form: molecule = O=C(c1ccc(Cl)c(S(=O)(=O)N2CCCC2)c1)N1CCN(c2ccccc2)CC1 ; IC50 = 6.61 µM (active)

Form: molecule = CCCn1c(CN2CCN(c3cccc(Cl)c3)CC2)nc2c1c(=O)n(C)c(=O)n2C ; IC50 = 14.2 µM (active)

Form: molecule = COc1ccc(-c2nc(-c3cccs3)c(-c3cccs3)[nH]2)cc1O ; IC50 = 20 µM (active)

Form: molecule = Nc1ncnc2c1ncn2C1OC(CO)C(O)C1O (stereo not given) ; IC50 = 0.588 µM (active)

Form: molecule = COc1cc(/C=C2\SC(NS(=O)(=O)Cc3ccccc3)=NC2=O)c([N+](=O)[O-])cc1OC ; IC50 = 9.12 µM (active)

Form: molecule = CC1CCCCN1CCCNC(=O)c1nn(C)c2c1CSc1ccccc1-2 (stereo not given) ; IC50 = 5.6 µM (active)

====

Assign EC50 to each entry below.
- target: Protein RecA (Mycobacterium tuberculosis, UniProt P9WHJ3)
- test-summary: Fluorescence Cell-Free Homogeneous Dose Retest to Identify Inhibitors of RecA-Intein Splicing Activity. [Related pubchem assays (depositor defined):AID2097, AID2223, AID489010, AID492950]
- Type: functional
Calls of active or inactive are those of the source.

Readout EC50 for CC(=O)NCCn1c(SCc2ccccc2C)nc2ccccc2c1=O , test system Protein RecA (Mycobacterium tuberculosis, UniProt P9WHJ3), was 83.2 µM (active)

Readout EC50 for COc1ccc(C2C(C#N)=C(N)Oc3[nH]nc(C)c32)cc1Cn1nnc2ccccc21 (stereo not given) , test system Protein RecA (Mycobacterium tuberculosis, UniProt P9WHJ3), was 3.87 µM (active)

Readout EC50 for O=C1c2[nH]nc(-c3ccccc3O)c2C(c2cccc(Cl)c2)N1Cc1ccco1 (stereo not given) , test system Protein RecA (Mycobacterium tuberculosis, UniProt P9WHJ3), was > 380 µM (inconclusive)

Readout EC50 for Cc1ccc(-n2nnc3c(SCC(=O)NCC4CCCO4)ncnc32)cc1 (stereo not given) , test system Protein RecA (Mycobacterium tuberculosis, UniProt P9WHJ3), was 4.23 µM (active)

Readout EC50 for Cc1n[nH]c2c1C(c1ccc(-c3ccc(Cl)cc3)o1)C(C#N)=C(N)O2 (stereo not given) , test system Protein RecA (Mycobacterium tuberculosis, UniProt P9WHJ3), was 28.6 µM (active)

Readout EC50 for COc1ccc(OC)c(N2C(=O)C(Cl)=C(N3CCCCC3)C2=O)c1 , test system Protein RecA (Mycobacterium tuberculosis, UniProt P9WHJ3), was 4.67 µM (active)

Readout EC50 for O=C(CCl)Nc1ccc(N=Nc2ccccc2)cc1 , test system Protein RecA (Mycobacterium tuberculosis, UniProt P9WHJ3), was 2.18 µM (active)

Readout EC50 for CN(C(=O)C(Cl)Cl)c1ccc(OC(=O)c2ccco2)cc1 [DILOXANIDE FUROATE] , test system Protein RecA (Mycobacterium tuberculosis, UniProt P9WHJ3), was 10.3 µM (active)

Readout EC50 for Nc1ccc(Oc2ncccn2)cc1 , test system Protein RecA (Mycobacterium tuberculosis, UniProt P9WHJ3), was 13.8 µM (active)

Readout EC50 for Cc1n[nH]c2c1C(c1ccsc1C)C(C#N)=C(N)O2 (stereo not given) , test system Protein RecA (Mycobacterium tuberculosis, UniProt P9WHJ3), was 3.77 µM (active)

====

- target: UniProtKB Q194T2
- Sequence (Q194T2 whole entry): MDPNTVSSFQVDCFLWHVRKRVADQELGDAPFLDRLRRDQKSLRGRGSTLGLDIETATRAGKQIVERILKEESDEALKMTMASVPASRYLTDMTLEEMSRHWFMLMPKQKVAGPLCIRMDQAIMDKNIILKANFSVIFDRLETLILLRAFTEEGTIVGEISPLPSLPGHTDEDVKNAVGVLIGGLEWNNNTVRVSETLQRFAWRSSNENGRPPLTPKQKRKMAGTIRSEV
- Assay type: functional, Influenza A virus (A/California/07/2009(H1N1))
Activity calls are given as the source filed them.
assay-readout: IC50

Form: compound = Cc1nc(C(F)(F)F)c(C(=O)NN=C(N)c2ccccn2)s1 ; IC50 = 8.03 µM (active)

Form: compound = O=C1NC(c2ccccn2)Nc2sc3c(c21)CCC3 (stereo unspecified) ; IC50 = 54.2 µM (active)

Form: compound = O=C(O)CCNc1cc(N2CCN(C(=O)c3ccco3)CC2)c2noc3c2c1C(=O)c1ccccc1-3 ; IC50 = 26.9 µM (active)

Form: compound = COc1ccccc1N=Nc1ccc(O)c2ncccc12 ; IC50 = 12.4 µM (active)

Form: compound = C/C(=N\NC(=O)c1cc(-c2cccs2)nc2ccccc12)c1ccccn1 ; IC50 = 4.52 µM (active)

Form: compound = c1ccc(-c2cn(C[C@H]3CC[C@H](Cn4cc(-c5ccccn5)nn4)O3)nn2)nc1 ; IC50 = 3.19 µM (active)

====

Assign AC50 to each entry below.

Readout AC50 for CCc1cc2c(c(CC)n1)CCC(=O)N2Cc1ccc(-c2ccccc2-c2nnn[nH]2)cc1 , test system Cytochrome P450 2C9 (Homo sapiens), was 25.1 µM (inconclusive)

Readout AC50 for Cn1c(=N)c(S(=O)(=O)c2ccc(F)cc2)cc2c(=O)n3ccccc3nc21 , test system Cytochrome P450 2C9 (Homo sapiens), was 17.8 µM (inconclusive)

Readout AC50 for Cc1ccc(NC(=O)C2CC(=O)n3c(nc4ccccc43)N2)cc1 (stereo not given) , test system Cytochrome P450 2C9 (Homo sapiens), was 0.0355 µM (inconclusive)

Readout AC50 for O=C(CN1C(=O)NC2(CCCCCC2)C1=O)N1CCN(S(=O)(=O)c2ccc(Cl)cc2)CC1 , test system Cytochrome P450 2C9 (Homo sapiens), was 17.8 µM (inconclusive)

Readout AC50 for O=C(OCc1ccccn1)c1ccc(COc2ccccc2Cl)o1 , test system Cytochrome P450 2C9 (Homo sapiens), was 39.8 µM (inconclusive)

Readout AC50 for N#Cc1cccc(-c2ccc3ncnc(NCc4ccccc4)c3c2)c1 , test system Cytochrome P450 2C9 (Homo sapiens), was 0.631 µM (inconclusive)

Readout AC50 for COC(=O)C1C(=O)C2=C(CC1C)NC(=O)CC2c1cccc(C)c1 (stereo not given) , test system Cytochrome P450 2C9 (Homo sapiens), was 15.8 µM (inconclusive)

Readout AC50 for COc1ccc(-n2c(C)nnc2O)cc1OC , test system Cytochrome P450 2C9 (Homo sapiens), was 1.78 µM (inconclusive)

Readout AC50 for COc1ccc(-n2c(C)cc(C=O)c2C)cc1Cl , test system Cytochrome P450 2C9 (Homo sapiens), was 17.8 µM (inconclusive)

Readout AC50 for NC(=O)CNC(=O)[C@@H]1CC2(CC(c3cccc([N+](=O)[O-])c3)=NO2)CN1C(=O)c1ccccc1 (stereo not given in full) , test system Cytochrome P450 2C9 (Homo sapiens), was 0.708 µM (inconclusive)

====

Assign EC50 to each entry below.
- target: Heat shock factor protein 1 (Mus musculus, UniProt P38532)
- Sequence (P38532 whole entry): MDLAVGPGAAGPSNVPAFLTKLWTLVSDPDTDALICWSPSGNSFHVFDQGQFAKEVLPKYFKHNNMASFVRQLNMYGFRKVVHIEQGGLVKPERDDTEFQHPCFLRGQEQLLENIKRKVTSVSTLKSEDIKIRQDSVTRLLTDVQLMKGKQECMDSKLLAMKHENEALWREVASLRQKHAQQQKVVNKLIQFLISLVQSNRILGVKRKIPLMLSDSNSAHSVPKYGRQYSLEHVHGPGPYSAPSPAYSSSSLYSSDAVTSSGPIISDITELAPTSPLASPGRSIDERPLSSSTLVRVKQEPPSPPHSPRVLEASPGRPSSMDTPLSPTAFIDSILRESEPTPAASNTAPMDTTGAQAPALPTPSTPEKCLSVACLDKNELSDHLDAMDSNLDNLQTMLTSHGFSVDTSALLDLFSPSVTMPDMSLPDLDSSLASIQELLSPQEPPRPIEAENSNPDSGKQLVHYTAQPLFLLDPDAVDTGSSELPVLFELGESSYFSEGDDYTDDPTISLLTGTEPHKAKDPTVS
- test-summary: decrease of HSF1-responsive luciferase luminescence – cell-based, NIH3T3, dose retest, confirmation (AID 2382);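 further: NIH3T3 fibroblasts with HSF1-driven luciferase reporter stressed by proteasome inhibitor MG132; luminescence from HSF1-driven luciferase expression after 8 hours of MG132 stress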
- Assay type: functional
Activity calls are given as the source filed them.

Form: compound = CCCCCn1c(=O)c(C(=O)Nc2ccccn2)c(O)c2ccccc21 ; EC50 = > 195 µM (not active)

Form: compound = C[C@@H](C(=O)Nc1ccc2c(c1)OCCO2)n1c(=O)[nH]c2ccccc2c1=O ; EC50 = 0.377 µM (active)

Form: compound = COc1ccccc1N=Nc1ccc(O)c2ncccc12 ; EC50 = 2.29 µM (active)

Form: compound = O=C(Nc1ccc2c(c1)OCCO2)c1coc2ccccc2c1=O ; EC50 = > 195 µM (not active)

Form: compound = CC(=O)N/N=C(\C)CC(=O)NC(C)(C)C ; EC50 = > 195 µM (not active)

Form: compound = CC(C)CN(C(=O)CCCSc1nc2ccccc2[nH]1)c1c(N)n(Cc2ccccc2)c(=O)[nH]c1=O ; EC50 = > 195 µM (not active)

Form: compound = Cc1cccc(CS(=O)(=O)c2nnc([C@H](Cc3ccccc3)NC(=O)OC(C)(C)C)o2)c1 ; EC50 = 2.19 µM (active)

Form: compound = Cc1ccc(-c2ccc(=O)n(CCC(=O)NCCN3CCCCC3C)n2)cc1 (stereo unspecified) ; EC50 = > 195 µM (not active)

Form: compound = COc1ccc(S(=O)(=O)NCC2CCCN(Cc3ccc(C)o3)C2)cc1 (stereo unspecified) ; EC50 = > 195 µM (not active)

Form: compound = O=C(N/N=C/c1ccc[nH]1)c1ccc(COc2cccc3cccnc23)cc1 ; EC50 = 0.16 µM (active)

Form: compound = CN1CCN(CC(=O)Nc2nnc(-c3cccs3)s2)CC1 ; EC50 = > 195 µM (not active)
